- test: NCI Yeast Anticancer Drug Screen. Data for the bub3 strain (AID 167)
- test_context: S. cerevisiae bub3 mutant strain, at 50.0 µM (retest, dose inferred, filed as 5.0)
About 79,000 compounds went through this panel and 15% of them were active in at least one assay; those are over-represented in the sample as a whole. Active and inactive are the calls of the source. No stated cut-off is given here; in the data, active means growth inhibition above about 70%; inactive means the rest.
Parameter call: string, one of true (active), false (inactive)

compound: OC(CCN1CCOCC1)(c1cccc(Cl)c1)C1CCCCC1 (centres undefined)
assigned_category: false

Could you now look at the following compound, please?
**Query** Hey, what did the test say about "CCc1c(C)[nH]c(-c2csc(N)n2)c1C" ?
**Result** true
